- test_details: pKa values by non-aqueous titration (half neutralization potential)
- Format: physicochemical
- conditions_used: pKa of the test hindered amine contained in the formulation; read-out: HALS pKa
readout: pKa
// no unit string in output, number only

Lab book: pKa of CCCCCCCCON1C(C)(C)CC(OC(=O)CCCCCCCCC(=O)OC2CC(C)(C)N(OCCCCCCCC)C(C)(C)C2)CC1(C)C noted as 4.6

Lab book: pKa of CCCCCCCCCCCCCCCCCC(=O)OC1CC(C)(C)N(OCC(C)(C)O)C(C)(C)C1 noted as 4

Lab book: pKa of CC1(C)CC(OC(=O)CCCCCCCCC(=O)OC2CC(C)(C)NC(C)(C)C2)CC(C)(C)N1 noted as 9.1

====

Would you mind telling me the reported pKa of each entry?
- test_details: pKa values by non-aqueous titration (half neutralization potential)
- Format: physicochemical
- conditions_used: extrapolated from HNP versus known aqueous pKa of reference materials; read-out: Calculated pKa
- Protocol: In order to determine the pKa values of water insoluble materials, organic references with known pKa values in water are titrated non-aqueously. A plot of the half neutralization potential (HNP) versus the known aqueous pKa value of the reference material is established. The HNP of the test material is determined and extrapolated to find the corresponding pKa value of the test material. […]
// no unit string in output, number only

Lab book: pKa of CCCCCCCCON1C(C)(C)CC(OC(=O)CCCCCCCCC(=O)OC2CC(C)(C)N(OCCCCCCCC)C(C)(C)C2)CC1(C)C noted as 4.6

Lab book: pKa of CCCCCCCCCCCCCCCCCC(=O)OC1CC(C)(C)N(OCC(C)(C)O)C(C)(C)C1 noted as 3.9
